Would you kindly list IC50 for each of these compounds?
# assayed target: Rat FAAH-1 (Rattus norvegicus)
# Sequence (P97612 whole entry): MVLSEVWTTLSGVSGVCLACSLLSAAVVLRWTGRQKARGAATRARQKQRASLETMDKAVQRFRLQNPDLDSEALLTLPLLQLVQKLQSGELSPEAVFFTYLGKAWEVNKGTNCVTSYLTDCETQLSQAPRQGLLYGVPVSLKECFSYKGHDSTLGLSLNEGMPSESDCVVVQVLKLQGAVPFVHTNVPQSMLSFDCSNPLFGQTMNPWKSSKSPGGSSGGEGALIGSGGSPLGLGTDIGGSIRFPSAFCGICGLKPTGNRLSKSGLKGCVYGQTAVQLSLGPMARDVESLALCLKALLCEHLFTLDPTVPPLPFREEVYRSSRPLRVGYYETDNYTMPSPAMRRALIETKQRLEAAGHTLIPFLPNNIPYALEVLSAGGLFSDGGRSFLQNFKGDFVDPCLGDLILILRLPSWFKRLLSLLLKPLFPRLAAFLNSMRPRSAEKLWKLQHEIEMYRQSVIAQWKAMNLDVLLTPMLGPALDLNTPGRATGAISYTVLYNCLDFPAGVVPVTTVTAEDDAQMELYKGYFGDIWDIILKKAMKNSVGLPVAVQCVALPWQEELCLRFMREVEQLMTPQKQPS
# assay method text: Assay Method 2: rat FAAH-1 assay, 3H-anandamide hydrolysis in homogenate of SK-N-MC cells transfected with rat FAAH
Structures can show the parent of a compound that is named as a salt.
Numbers only, in nM.

Consider the following illustrative entries.
compound: O[C@@H](CNc1cc(-c2ccc3ncccc3c2)ncn1)c1ccccc1
IC50, nM: 4000
//
compound: O=S(=O)(c1ccc(-c2cc(NC[C@H](O)c3ccccc3)ncn2)cc1)N1CCSCC1
IC50, nM: 1500
//
compound: CCCOc1ccc(-c2cc(NC[C@H](O)c3ccccc3)ncn2)cc1 [Example 44, trifluoroacetic acid salt]
IC50, nM: 600
//
compound: OC(CNc1cc(-c2ccc(C(F)(F)F)c(Cl)c2)ncn1)c1ccc2ccccc2c1 (stereo not shown)
IC50, nM: 6

Please report IC50 for every entry that follows.
1. Cn1ccc2cc(-c3cc(NC[C@H](O)c4ccccc4)ncn3)ccc21 [Example 90, trifluoroacetic acid salt]
2. CNCCNc1nc(NC[C@H](O)c2ccccc2)cc(-c2ccc(C(F)(F)F)c(Cl)c2)n1 [Example 163, hydrochloride salt]

Out:
1: 675; 2: 2000

In: Using known records, supply IC50 for O[C@@H](CNc1cc(-c2ccc3nonc3c2)ncn1)c1ccccc1 [Example 45, trifluoroacetic acid salt]
Out: 600

###

Would you kindly list pIC50 for each of these compounds?
# assayed target: FAAH (Homo sapiens, UniProt O00519)
# Sequence (O00519 whole entry): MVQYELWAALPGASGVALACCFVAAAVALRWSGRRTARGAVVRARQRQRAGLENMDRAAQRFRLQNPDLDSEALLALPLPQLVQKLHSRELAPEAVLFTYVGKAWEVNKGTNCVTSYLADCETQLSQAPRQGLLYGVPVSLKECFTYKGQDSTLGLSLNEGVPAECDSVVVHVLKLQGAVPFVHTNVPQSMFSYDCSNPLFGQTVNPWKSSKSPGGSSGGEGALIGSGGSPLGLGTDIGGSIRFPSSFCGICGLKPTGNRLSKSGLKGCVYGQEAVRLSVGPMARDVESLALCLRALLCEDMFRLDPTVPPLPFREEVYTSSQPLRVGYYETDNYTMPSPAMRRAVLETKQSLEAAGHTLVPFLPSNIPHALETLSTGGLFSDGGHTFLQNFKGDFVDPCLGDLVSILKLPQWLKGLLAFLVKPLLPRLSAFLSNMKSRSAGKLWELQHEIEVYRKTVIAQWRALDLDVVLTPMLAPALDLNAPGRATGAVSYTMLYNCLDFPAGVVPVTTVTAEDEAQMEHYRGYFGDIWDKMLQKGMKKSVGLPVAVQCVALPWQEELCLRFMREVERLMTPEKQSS
# assay method text: Assay Method 1: FAAH assay, 3H-anandamide hydrolysis in homogenate of T84 cells or SK-N-MC cells transfected with human FAAH
Structures can show the parent of a compound that is named as a salt.
One number for each entry, as −log10 of the molar value.

Consider the following illustrative entries.
compound: O[C@@H](CNc1cc(-c2ccc3[nH]ccc3c2)ncn1)c1ccccc1 [Example 85, trifluoroacetic acid salt]
pIC50: 7.74
--
compound: CS(=O)(=O)c1nc(NC[C@H](O)c2ccccc2)cc(-c2ccc(C(F)(F)F)c(Cl)c2)n1
pIC50: 6.43
--
compound: OC(CNc1cc(-c2ccc(C(F)(F)F)c(Cl)c2)ncn1)c1c(F)cccc1F (stereo not shown)
pIC50: 7.25
--
compound: O[C@@H](CNc1cc(-c2ccc(C(F)(F)F)c(Cl)c2)ncn1)c1ccc(F)cc1
pIC50: 8.70
--
compound: OC(CNc1cc(-c2ccc(OC(F)(F)F)cc2)ncn1)c1cc(Cl)cc(Cl)c1 (stereo not shown)
pIC50: 5.92

Please report pIC50 for every entry that follows.
1. COc1ccc(-c2cc(NC[C@H](O)c3ccccc3)ncn2)cn1
2. O[C@@H](CNc1cc(-c2ccc(F)c(F)c2)ncn1)c1ccccc1 [Example 59, trifluoroacetic acid salt]
3. CCOc1ccc(-c2cc(NC[C@H](O)c3ccccc3)ncn2)cn1
4. O[C@@H](CNc1cc(-c2cc3ccc(C(F)(F)F)cc3s2)ncn1)c1ccccc1 [Example 186, trifluoroacetic acid salt]

Out:
[6.35, 6.51, 7.30, 5.15]

###

# assayed target: Rat FAAH-1 (Rattus norvegicus)
# assay method text: Assay Method 2: rat FAAH-1 assay, 3H-anandamide hydrolysis in homogenate of SK-N-MC cells transfected with rat FAAH
Structures can show the parent of a compound that is named as a salt.
metric name: pIC50
Numbers only, as −log10 of the molar value.

Consider the following illustrative entries.
molecule: OC(CNc1cc(-c2ccc(C(F)(F)F)c(Cl)c2)ncn1)c1ccc(Cl)c(F)c1 (stereo not shown) [Example 133, trifluoroacetic acid salt]
metric name: pIC50
reported value: 7.82
//
molecule: OC(CNc1cc(-c2ccc(OC(F)(F)F)cc2)ncn1)c1ccc2c(c1)OC(F)(F)O2 (stereo not shown) [Example 122]
metric name: pIC50
reported value: 7.72
//
molecule: CCNc1nc(NC[C@H](O)c2ccccc2)cc(-c2ccc(C(F)(F)F)c(Cl)c2)n1 [Example 159, trifluoroacetic acid salt]
metric name: pIC50
reported value: 8.15

As a next step, examine the molecule that follows.
In: Using known records, supply pIC50 for CC(C)(C)c1ccc(-c2cc(NCC(O)c3ccccc3)ncn2)cc1 (stereo not shown) [Example 224]
Out: 6.27
